# Test system: NZOV9
# assay method text: Cellular growth inhibition (3H-thymidine incorporation)
# Assay type: cell-based
# test parameters: Homo sapiens, five days incubation, 3H-thymidine over the last 6 hrs, read-out: Cell IC50* NZOV9
pIC50: −log10 of the molar value.
Here the recorded pIC50 is given for each entry.

smiles representation	test value
COc1ncc(Nc2nc(N3CCOCC3)nc(-n3c(C(F)F)nc4c(OC)cccc43)n2)cn1	6.00 to 7.00
O=S(=O)(c1ccccc1)c1nc(N2CCOCC2)nc(-n2c(C(F)F)nc3ccccc32)n1	< 5.00
FC(F)c1nc2ccccc2n1-c1nc(Nc2cncnc2)nc(N2CCOCC2)n1	6.00 to 7.00
FC(F)c1nc2ccccc2n1-c1nc(NCc2ccncc2)nc(N2CCOCC2)n1	6.00 to 7.00
CNc1ccc(Nc2nc(N3CCOCC3)nc(-n3c(C(F)F)nc4c(OC)cccc43)n2)cn1	> 7.00

Annotate the compound Cn1cc(Nc2nc(N3CCOCC3)nc(-n3c(C(F)F)nc4ccccc43)n2)cn1 with its measured pIC50.
6.00 to 7.00

Annotate the compound COc1cccc2c1nc(C(F)F)n2-c1nc(Nc2ccc(N(C)C)nc2)nc(N2CCOCC2)n1 with its measured pIC50.
> 7.00

Annotate the compound FC(F)c1nc2ccccc2n1-c1nc(Nc2cnc3ccccc3c2)nc(N2CCOCC2)n1 with its measured pIC50.
6.00 to 7.00

---

test readout: melting point

Annotate the molecule FC(F)c1nc2ccccc2n1-c1nc(Nc2ccccc2)nc(N2CCOCC2)n1 with its measured melting point.
171 to 174 °C

Annotate the molecule Nc1ncc(-c2cc(N3CCOCC3)nc(-n3c(C(F)F)nc4ccccc43)n2)cn1 with its measured melting point.
281 to 285 °C

Annotate the molecule COc1cccc2c1nc(C(F)F)n2-c1nc(Nc2cncnc2)nc(N2CCOCC2)n1 with its measured melting point.
293 to 295 °C

Annotate the molecule COc1cccc2c1nc(C(F)F)n2-c1nc(N2CCOCC2)nc(N(C)c2cncnc2)n1 with its measured melting point.
214 to 217 °C

Annotate the molecule COc1cccc2c1nc(C(F)F)n2-c1nc(N2CCOCC2)c2ncn(-c3cccnc3)c2n1 with its measured melting point.
229 to 231 °C

Annotate the molecule COc1cccc2c1nc(C(F)F)n2-c1nc(N2CCOCC2)nc(-n2cccn2)n1 with its measured melting point.
274 to 277 °C

Annotate the molecule FC(F)c1nc2ccccc2n1-c1nc(Nc2cncnc2)nc(N2CCOCC2)n1 [Example 21] with its measured melting point.
290 to 292 °C

Annotate the molecule COc1cccc2c1nc(C(F)F)n2-c1nc(N2CCOCC2)nc2c1ncn2-c1cccnc1 with its measured melting point.
206 to 209 °C

Annotate the molecule COc1cc(Nc2nc(N3CCOCC3)nc(-n3c(C(F)F)nc4c(OC)cccc43)n2)ncn1 with its measured melting point.
256 to 259 °C

Annotate the molecule O=S(=O)(c1ccccc1)c1nc(N2CCOCC2)nc(-n2c(C(F)F)nc3ccccc32)n1 with its measured melting point.
237 to 239 °C

Annotate the molecule CN(c1ccccc1)c1nc(N2CCOCC2)nc(-n2c(C(F)F)nc3ccccc32)n1 with its measured melting point.
160 to 162 °C

Annotate the molecule COc1cccc2c1nc(C(F)F)n2-c1nc(Nc2ccc(Cl)nc2)nc(N2CCOCC2)n1 with its measured melting point.
260 to 262 °C

Annotate the molecule FC(F)c1nc2ccccc2n1-c1nc(-c2cccnc2)cc(N2CCOCC2)n1 with its measured melting point.
172 to 179 °C

Annotate the molecule COc1ccc(Nc2nc(N3CCOCC3)nc(-n3c(C(F)F)nc4c(OC)cccc43)n2)cn1 with its measured melting point.
201 to 202 °C

Annotate the molecule COc1cccc2c1nc(C(F)F)n2-c1nc(Nc2cnc(N(C)CCN(C)C)nc2)nc(N2CCOCC2)n1 with its measured melting point.
96 to 98 °C

Annotate the molecule COc1ccncc1Nc1nc(N2CCOCC2)nc(-n2c(C(F)F)nc3ccccc32)n1 with its measured melting point.
161 to 163 °C

Annotate the molecule FC(F)c1nc2ccccc2n1-c1nc(-c2cccnc2)nc(N2CCOCC2)n1 with its measured melting point.
199 to 201 °C

Annotate the molecule FC(F)c1nc2ccccc2n1-c1nc(NCc2ccccn2)nc(N2CCOCC2)n1 with its measured melting point.
192 to 193 °C

Annotate the molecule FC(F)c1nc2ccccc2n1-c1nc(Nc2cnccn2)nc(N2CCOCC2)n1 with its measured melting point.
271 to 274 °C

Where do the numbers come from? From patent US8486939B2.
